- measurementProtocol: NCI Yeast Anticancer Drug Screen. Data for the bub3 strain (AID 167)
- statedConditions: S. cerevisiae bub3 mutant strain, at 50.0 µM, active compounds read high
About 79,000 compounds went through this panel and 15% of them were active in at least one assay; those are over-represented in the sample as a whole.
experimentalEndpoint: growth inhibition (%)

>>> df
                                    compound  experimentalendpoint  testresult
 0             CCNc1ccc(S(=O)(=O)O)cc1C(=O)O     growth inhibition        1.25
 1                           Nc1c[nH]c(=S)s1     growth inhibition        39.6
 2  C/C(=C\c1ccccc1)C(=O)C1C(c2ccccc2)CC(=O)C(C)C1c1ccccc1 (stereo unspecified)     growth inhibition        -0.5
 3              CSC(SC)=C1CCCC(=C(SC)SC)C1=O     growth inhibition       -0.45
 4  O=C(O)C1=C(C(=O)Nc2ccc(NC(=O)C3=C(C(=O)O)C4C=CC3C4)cc2)C2C=CC1C2     growth inhibition        0.25
 5  O=C(Nc1ccccc1[N+](=O)[O-])C(=O)C(C(=O)c1ccccc1-c1ccccc1)C1OC(=O)c2ccccc21 (stereo unspecified)     growth inhibition         2.3
 6               S=C(S)N(Cc1ccccc1)Cc1ccccc1     growth inhibition         6.6
 7      COC(=O)/C=C1\C(=O)N(C(C)=O)c2ccccc21     growth inhibition        50.6
 8  CCC(C)[N-]c1cccc[n+]1[O-].CCC(C)[N-]c1cccc[n+]1[O-].[Cu+2] (stereo unspecified)     growth inhibition       -18.3
 9             N#CCCCCCCn1cnc2c(=S)nc[nH]c21     growth inhibition        -4.7
10  COc1ccccc1C1CC(c2ccccc2)=Nc2ccccc2S1 (stereo unspecified)     growth inhibition       -30.8
11  c1ccc2c(c1)CCC(C1=NC3CCCCC3N1)=N2 (stereo unspecified)     growth inhibition         6.3
12                                O=C1CSCCO1     growth inhibition        1.05
13  CC(=O)Nc1c(Cl)cc2c(c1Cl)Cc1cc(N(C)C)ccc1-2     growth inhibition        1.75
14         CN(/N=C\c1ccc2ccccc2c1)C1=NCCCCN1     growth inhibition        -0.1
15            Cc1ccc(NC(=O)Nc2ccccc2Cl)cc1Cl     growth inhibition        4.75
16  Cc1c2oc3c(C)ccc(C(=O)NCc4cccnc4)c3nc-2c(C(=O)NCc2cccnc2)c(N)c1=O     growth inhibition         2.6
17  COc1ccc(S(=O)(=O)N/N=C/c2cc(I)cc([N+](=O)[O-])c2O)cc1     growth inhibition       -3.85
18  Cc1ccc(-c2cn3c(nc4ccccc43)c(-c3ccccc3)n2)cc1     growth inhibition       -26.1
19                CCCNc1nc(N)[nH]c(=O)c1NC=O     growth inhibition         -15
20  CC1(CO)COC(c2ccccc2)=N1 (stereo unspecified)     growth inhibition        -1.3
21                            CCNN(CC)C(N)=O     growth inhibition       -13.2
22                   COc1cccc2c1C(=O)C=CC2=O     growth inhibition        87.2
23     CCCCCC1CCC(O)CC1 (stereo unspecified)     growth inhibition         4.2
24                          O=C1CCCCCCCCCCC1     growth inhibition       -17.1
25   Cc1ccc(C(=O)/C=C/c2ccc3c(c2)OCO3)c(C)c1     growth inhibition        47.5
26  O=C1c2cc3c(cc2CC12Cc1cc4c(cc1C2=O)CCCC4)CCCC3     growth inhibition       -4.25
27  O=C1C=C(Nc2nc(C(=O)O)cc(=O)[nH]2)c2ccccc2C1=O     growth inhibition       -25.6
28               C/C(C[n+]1ccccc1)=N\N=C(N)N     growth inhibition       -5.35
29  NCCCNCCCCNC(=O)C(O)NC(=O)CCCCCCN=C(N)N (stereo unspecified)     growth inhibition         3.4
30         CN1CCc2c1nc(-c1ccccc1)c1c2N(C)CC1     growth inhibition       -18.2
31  CC(=O)OCC(=O)[C@@]1(O)CC[C@H]2[C@@H]3C[C@H](Cl)C4=CC(=O)C=C[C@]4(C)[C@H]3C(=O)C[C@@]21C     growth inhibition       -7.75
32                  CCCCCCCCCCCCCCCCCCCCCCCC     growth inhibition        21.7
33               Cc1ccc(C=C(C(=O)O)C(=O)O)o1     growth inhibition       -13.4
34  CCc1c(O)c2c([nH]c1=O)SC(C)(C)CC2=NCC(C)C     growth inhibition       -43.6
35  CC1(C)OCC(C(OC(=O)c2ccc([N+](=O)[O-])cc2)C(OC(=O)c2ccc([N+](=O)[O-])cc2)C2COC(C)(C)O2)O1 (stereo unspecified)     growth inhibition         2.9

# credit: PubChem BioAssay (NCI)
